// data source = patent US20160060347A1

target: T1, hu_CXCR2_N-term (1-17)-BSA (human; bovine, coupled to carrier protein BSA; C-terminal cysteine introduced to enable coupling); test: ELISA, coated peptide-BSA, IgG1
T1 construct: Synthetic linear peptide chemically coupled to the carrier; also called CXCR2_aa1-17_BSA; CXCR2 aa1-17 BSA
T1 sequence (P02769 25-607 limits assumed): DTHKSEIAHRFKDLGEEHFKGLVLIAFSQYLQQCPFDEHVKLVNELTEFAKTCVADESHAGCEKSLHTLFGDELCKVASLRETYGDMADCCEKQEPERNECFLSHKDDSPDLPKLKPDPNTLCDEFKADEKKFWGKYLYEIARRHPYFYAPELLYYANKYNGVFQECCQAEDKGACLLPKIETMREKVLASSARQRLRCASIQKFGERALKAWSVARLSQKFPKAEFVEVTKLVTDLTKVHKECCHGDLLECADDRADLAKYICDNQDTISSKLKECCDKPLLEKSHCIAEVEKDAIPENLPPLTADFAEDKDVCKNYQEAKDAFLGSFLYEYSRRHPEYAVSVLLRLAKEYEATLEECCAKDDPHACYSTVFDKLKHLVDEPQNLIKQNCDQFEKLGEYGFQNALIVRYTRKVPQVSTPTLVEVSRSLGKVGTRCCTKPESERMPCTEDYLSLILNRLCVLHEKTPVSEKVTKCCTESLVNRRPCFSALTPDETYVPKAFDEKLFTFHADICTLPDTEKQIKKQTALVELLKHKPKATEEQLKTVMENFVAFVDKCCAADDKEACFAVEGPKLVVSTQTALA
Readout Name: binding result

Examples with their reported binding result follow.
| Binder | binding result |
| --- | --- |
| CX2-Mab #1.1 (antibody, IgG1, V domains shown) VH: QVQLVQSGAEVKKPGSSVKVSCKASGGTFSSYAISWVRQAPGQGLEWMGGIIPIVGEAKYAQKFQGRVTITADESTSTAYMELSSLRSEDTAVYYCARDSSGYDGYYAFAYWGQGTQVTVSS VL: DIVLTQPPSVSGAPGQRGTISCSGSSSNIGSSSVNWYQQLPGTAPKLLIYRNNQRPSGVPDRFSGSKSGTSASLAITGLQAEDEADYYCGSTDMSTNSIVFGGGTKLTVLG | binds |
| CX2-Mab #4.1 (antibody, IgG1, V domains shown) VH: QVQLVQSGAEVKKPGSSVKVSCKASGGTFSSYAISWVRQAPGQGLEWMGHIPPNEGTPWYAQKFQGRVTITADESTSTAYMELSSLRSEDTAVYYCARGYGFDVWGQGTLVTVSS VL: DIVLTQPPSVSGAPGQRVTISCSGSSSNIGVNIVNWYQQLPGTAPKLLIYSTSNRPSGVPDRFSGSKSGTSASLAITGLQAEDEADYYCATRDGISKSVVFGGGTKLTVLG | binds |
| CX2-Mab #4.2 (antibody, IgG1, V domains shown) VH: QVQLLESGGGLVQPGGSLRLSCAASGFTFSSNGMSWVRQAPGKGLEWVSAISSSGSKTYYADSVKGRFTISRDNSKNTLYLQMNSLRAEDTAVYYCARGYGFDVWGQGTLVTVSS VL: DIVLTQPPSVSGAPGQRVTISCSGSSSNIGVNIVNWYQQLPGTAPKLLIYSTSNRPSGVPDRFSGSKSGTSASLAITGLQAEDEADYYCGTYDVQSHQMVFGGGTKLTVLG | binds |
| CX2-Mab #1.3 (antibody, IgG1, V domains shown) VH: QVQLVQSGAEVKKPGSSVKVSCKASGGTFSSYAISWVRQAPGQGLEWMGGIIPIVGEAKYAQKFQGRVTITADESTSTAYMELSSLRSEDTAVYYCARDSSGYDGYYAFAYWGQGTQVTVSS VL: DIVLTQPPSVSGAPGQRGTISCSGSSSNIGSSSVNWYQQLPGTAPKLLIYRNNQRPSGVPDRFSGSKSGTSASLAITGLQAEDEADYYCAVTTKPQGIVFGGGTKLTVLG | binds |
| CX2-Mab #1.4 (antibody, IgG1, V domains shown) VH: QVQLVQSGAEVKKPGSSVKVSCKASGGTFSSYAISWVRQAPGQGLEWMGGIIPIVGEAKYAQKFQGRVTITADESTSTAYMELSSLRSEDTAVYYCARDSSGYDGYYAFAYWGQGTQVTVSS VL: DIVLTQPPSVSGAPGQRGTISCSGSSSNIGSSSVNWYQQLPGTAPKLLIYRNNQRPSGVPDRFSGSKSGTSASLAITGLQAEDEADYYCASTDISRVIVFGGGTKLTVLG | binds |

binding result for CX2-Mab #3.1 (antibody, IgG1, V domains shown) VH: QVQLLESGGGLVQPGGSLRLSCAASGFTFSSYWMSWVRQAPGKGLEWVSVISYSGSETFYADSVKGRFTISRDNSKNTLYLQMNSLRAEDTAVYYCARGRVGYAFDYWGQGTLVTVSS VL: DIVLTQPPSVSGAPGQRVTISCSGSSSNIGVNYVNWYQQLPGTAPKLLIYSNNQRPSGVPDRFSGSKSGTSASLAITGLQAEDEADYYCQTRAVHFARVVFGGGTKLTVLG ?
binds

Param item: CX2-Mab #1.6 (antibody, IgG1, V domains shown) VH: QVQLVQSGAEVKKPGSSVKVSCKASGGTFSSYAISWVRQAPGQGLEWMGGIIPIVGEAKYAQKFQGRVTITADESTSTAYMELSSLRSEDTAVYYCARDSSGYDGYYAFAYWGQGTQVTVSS VL: DIVLTQPPSVSGAPGQRGTISCSGSSSNIGSSSVNWYQQLPGTAPKLLIYRNNQRPSGVPDRFSGSKSGTSASLAITGLQAEDEADYYCASRDHFSHGLVFGGGTKLTVLG
binds

Param item: CX2-Mab #3.2 (antibody, IgG1, V domains shown) VH: QVQLLESGGGLVQPGGSLRLSCAASGFTFSSYAMSWVRQAPGKGLEWVSLISQGGLTYYADSVKGRFTISRDNSKNTLYLQMNSLRAEDTAVYYCARGRVGYAFDYWGQGTLVTVSS VL: DIVLTQPPSVSGAPGQRVTISCSGSSSNIGVNYVNWYQQLPGTAPKLLIYSNNQRPSGVPDRFSGSKSGTSASLAITGLQAEDEADYYCQSRASGFYSVVFGGGTKLTVLG
binds
